Data credit: PubChem BioAssay (NCI)

# Test system: HS 578T breast
# ASSAY: NCI tumour cell line growth inhibition, 48 h
READOUT KIND: TGI (µM)
API: value field is a number in µM; no unit string.

Observe how each entry below is paired with its result.
1) O=S(=O)(NC1=NCCN1C(=S)SN1CCn2c1nsc2=S)c1ccc(OC(F)(F)F)cc1 : 33.1
2) FC(F)(F)c1cc(Cl)cnc1N/N=C(/c1ccccc1)c1ccccn1 : 5.98

Here's the next entry for you.
Fill in the recorded TGI for this compound, with HS 578T breast as test system: Cc1ccc(NC2=C(Cl)C(=O)N(Cc3ccccc3)C2=O)cc1O 83.4

###

# System: HCC-2998 colon
# ASSAY: NCI tumour cell line growth inhibition, 48 h
// values below are reported TGI

Please review the following examples before continuing.
1) CCC12C=CCN3CCC4(C(=C(C(=O)OC)[C@@H]1O)Nc1ccccc14)C32 (stereo partly specified) : 3.06 µM
2) CCNC(=S)N/N=C/c1cc([N+](=O)[O-])ccc1O : > 100 µM

Given the entry COc1ccc(C2c3cc4c(cc3OC(NNS(=O)(=O)c3ccc(C)cc3)C2C)OCO4)cc1 (stereo unspecified) , report its measured TGI. > 100 µM

// query: O=CC[C@H]1C(=O)C[C@@H]2CCC[C@@H]21 > 100 µM

What would you report for CC[C@@]1(O)C(=O)OCc2c1cc1n(c2=O)Cc2c-1nc1ccccc1c2/C=N\NC(=O)CN ? > 47.4 µM

Now this one: COc1ccc(C(=O)C(C(=O)CCC(=O)Nc2ccc(C)c(C)c2)c2ccc(OC)cc2)cc1 (stereo unspecified) > 100 µM

Then what about the compound Cc1nc2ccccc2c(=O)n1-c1ccccc1I ? > 100 µM

Item: COc1cc2c(cc1OC)-c1c3cc(O)ccc3nn[n+]1CC2 > 100 µM

###

# Test system: HS 578T breast
# ASSAY: NCI tumour cell line growth inhibition, 48 h
READOUT KIND: TGI

Previously resolved entries follow.
1. O=C(O)CSc1ccc([N+](=O)[O-])cc1[N+](=O)[O-] : > 100 µM
2. COc1cc(-c2nn(-c3ccc(NC(=O)c4ccc(Cl)c(C(F)(F)F)c4)cc3)cc2-c2ccncc2)ccc1Cl : 4.03 µM
3. CC12CCC(O)CC1CCC1C2CCC2(C)C(C3=CC(=O)OC3)CCC12O (centres undefined) : > 100 µM
4. CC1(C)N=C(/C(Cl)=[N+](/[O-])C(=O)c2ccc(F)cc2)C(C)(C)N1O : 57.1 µM
5. Cn1cc(C2=C(c3cn(C)c4ncccc34)C(=O)NC2=O)c2ccccc21 : > 19.1 µM
6. CC[C@@]1(O)C(=O)OCc2c1cc1n(c2=O)Cc2c-1nc1ccccc1c2/C=N\NC(=O)CN : > 100 µM
7. COc1ccc2c(C3=C(c4cn(C)c5ccccc45)C(=O)NC3=O)cn(C)c2c1 : > 25 µM
8. O=C1/C(=C/c2ccc(O)cc2)CC/C1=C\c1ccc(O)cc1 : > 100 µM

Here is the next item to consider.
Please tell me: TGI of Cc1ccc(C(=O)/C(=C/c2ccc([N+](=O)[O-])cc2)SCc2ccc(Cl)cc2)cc1 , system HS 578T breast? 6.96 µM

###

// reported TGI for each item listed
# Test system: KM20L2 colon
# ASSAY: NCI tumour cell line growth inhibition, 48 h

So what's the measured TGI for this one? Cc1cc(=O)[nH]c(NN2C(Cl)C(=O)C2c2ccccc2O)n1 (centres undefined) > 100 µM

###

# System: 786-0 renal
# ASSAY: NCI tumour cell line growth inhibition, 48 h
Would you please tag the item class 1 when its TGI is 20 µM or above, and class 0 when it is below?

Examples from the recorded data:
1. O=C1C(=Cc2ccc(O)cc2)N=C(c2ccccc2)N1n1c(-c2ccccc2)nc2ccccc2c1=O : class 1
2. NC(Cc1c[nH]c2c(O)cccc12)C(=O)O (configuration not stated) : class 1
3. CO[C@H](C(=O)[C@@H](O)[C@@H](C)O)[C@@H]1Cc2cc3cc(O[C@H]4C[C@@H](O[C@H]5C[C@@H](O)[C@H](O)C(C)O5)[C@H](O)C(C)O4)c(C)c(O)c3c(O)c2C(=O)[C@H]1O[C@H]1C[C@@H](O[C@H]2C[C@@H](O[C@H]3C[C@](C)(O)C(=O)C(C)O3)[C@@H](O)C(C)O2)[C@H](O)C(C)O1 (some centres not stated) : class 0
4. CCCCC(=O)OCC(=O)[C@]1(O)Cc2c(O)c3c(c(O)c2[C@@H](OC2CC(NC(=O)C(F)(F)F)C(O)C(C)O2)C1)C(=O)c1c(OC)cccc1C3=O (some centres not stated) : class 0
5. COC(=O)c1cc2c(n1S(=O)(=O)c1ccc(C)cc1)C(=O)C(=O)c1[nH]cc(C(=O)OCc3ccccc3)c1-2 : class 0

API: above_or_equal(metric=TGI, cutoff=20 µM) for item O=c1[nH]cc(N=Cc2cc(Cl)cc(Cl)c2O)c(=O)[nH]1 class 1

What do we get for CCC12C=CCN3CCC4(C(=C(C(=O)OC)[C@@H]1O)Nc1ccccc14)C32 (some centres not stated) ? class 0

Can you check CCC[C@@H](O)C[C@@H]1CCC[C@H](C[C@@H](O)CC)N1C next? class 1

Another compound to look at: N#CCCN(CCC#N)c1ccc(/C=C2\N=C(c3cc([N+](=O)[O-])ccc3Cl)OC2=O)cc1 class 1

And then COc1cc(CNc2cnc3cc(N)cc(N)c3n2)cc(OC)c1 , what is it? class 1

Again, but for O=C(/C=C/C12c3ccccc3C(c3ccccc31)C1C(=O)NC(=O)C12)c1ccncc1 (configuration not stated) class 0

How about this compound: COc1cc(/C=N/NC(=O)c2ccc(C(F)(F)F)nc2Nc2ccc(Cl)cc2C)ccc1O class 0

###

# System: NCI-H226 lung
# ASSAY: NCI tumour cell line growth inhibition, 48 h
Listed below: TGI values for each entry.

Use these answered entries as a reference point.
1) C=C1C(=O)C23CC1CCC2C12CO[C@@H]4OCC(C)(CC[C@@H]1OC3=O)C42 (stereo not given in full) : 38.4 µM
2) Cc1cc(N(CCC#N)CCC#N)ccc1/C(N=Nc1ccc(Cl)cc1)=N\NC(=O)c1ccccc1 : > 100 µM
3) NC(=O)C(c1ccccc1)N1OC2C(=O)N(c3ccccc3)C(=O)C2C1c1c2ccccc2c(Cl)c2ccccc12 (stereo not given) : > 100 µM
4) O=C1C(=O)N(c2ccc(Cl)cc2Cl)C(=O)C(=O)C1c1nc2ccccc2s1 : > 100 µM
5) NNC(=O)Nc1cccnc1 : > 100 µM

Okay, now this molecule:
Query TGI on NCI-H226 lung for COC(=O)C1CCC(=O)N1C(c1ccccc1)c1ccc(OC)c(OC)c1 (stereo not given) > 100 µM

###

# Test system: UACC-62 melanoma
# ASSAY: NCI tumour cell line growth inhibition, 48 h
READOUT KIND: TGI

Solved entries:
1. Cc1cn(C2CC(N(O)C(N)=O)C(CO)O2)c(=O)[nH]c1=O (centres undefined) : > 100 µM
2. COc1ccc(-c2nc3sccn3c2/C(N)=N/C(=N)N)cc1OC : > 100 µM

What value of TGI on UACC-62 melanoma does O=C1OCC(O)=C1C(c1ccc(Cl)cc1)c1cc2c(cc1O)OCO2 (centres undefined) have? > 100 µM

And NC(=O)c1cccc2cn(-c3ccc([C@@H]4CCCNC4)cc3)nc12 ? 27 µM

###

# Test system: SW-620 colon
# ASSAY: NCI tumour cell line growth inhibition, 48 h
Each item that follows carries a reported GI50.

1. COc1ccc(C(=O)Cn2c(C(=O)c3ccccc3)nc(-c3ccc(OC)cc3)c2-c2ccc(OC)cc2)cc1 : > 100 µM
2. O=C(/C=C/C12c3ccccc3C(c3ccccc31)C1C(=O)NC(=O)C12)c1ccncc1 (centres undefined) : 2.47 µM
3. COc1cc(-c2nn(-c3ccc(NC(=O)c4ccc(Cl)c(C(F)(F)F)c4)cc3)cc2-c2ccncc2)ccc1Cl : 3.31 µM

For the next question, use this compound.
Suppose we examine the compound CC1=C(C(=O)Nc2ccc(Cl)c(Cl)c2)C(c2cccc(Oc3ccccc3)c2)NC(=S)N1 (centres undefined) ; what GI50 value has been reported? 8.23 µM

###

# System: SNB-19 CNS
# ASSAY: NCI tumour cell line growth inhibition, 48 h
# TGI values compiled below
The reply should contain only the number, in µM.

1) Clc1ccc2c(NCCCCNc3nc(N4CCCCC4)nc4ccccc34)ccnc2c1 : 14.2
2) Nc1ccccc1SC(C[N+](=O)[O-])c1ccc2c(c1)OCO2 (configuration not stated) : 24.3
3) CCC(CO)Nc1nc2ccc(Cl)cc2c2ccccc12 (configuration not stated) : 21.3
4) COc1cc(/C=N/NC(=O)c2ccc(C(F)(F)F)nc2Nc2ccc(Cl)cc2C)ccc1O : 14.5
5) O=C(CC1(O)C(=O)Nc2c(Cl)cc(Cl)cc21)c1ccc(Br)cc1Br (configuration not stated) : 41
6) CC1=C(C(=O)Nc2ccc(Cl)c(Cl)c2)C(c2cccc(Oc3ccccc3)c2)NC(=S)N1 (configuration not stated) : 14.1
7) COC1=CC(c2ccc[nH]2)=N/C1=C\c1[nH]c(C)c(C(=O)OC(C)C)c1C : 34.9
8) O=C(/C=C/C12c3ccccc3C(c3ccccc31)C1C(=O)NC(=O)C12)c1ccncc1 (configuration not stated) : 7.46

Pending molecule:
I would be grateful if you could share the reported TGI for O=C1/C(=C/c2cccc([N+](=O)[O-])c2)COc2ccc(O)cc21 . 3.97
